# TEST SYSTEM: strychnine insensitive glycine binding site located on the NMDA receptor complex (Rattus norvegicus)
# PROTOCOL NOTES: Affinity for strychnine insensitive glycine binding site (procedure of Kishimoto et al.)
pKi: −log10 of the molar value.
PROPERTY: pKi

{"columns": ["COMPOUND", "pKi"],
 "data": [
  ["NC(=O)C=Cc1ccc(NC(=O)C=C2CC(C(=O)O)Nc3cc(Cl)cc(Cl)c32)cc1 (racemic) [Example 3]", 8.10],
  ["N#CCc1ccc(NC(=O)/C=C2\\CC(C(=O)O)Nc3cc(Cl)cc(Cl)c32)cc1 (racemic) [Example 5]", 8.10],
  ["COCC(=O)Nc1ccc(NC(=O)C=C2CC(C(=O)O)Nc3cc(Cl)cc(Cl)c32)cc1 (racemic) [Example 7]", 8.20]
]}

(P) CC(C)C(=O)NCC(=O)Nc1ccc(NC(=O)/C=C2\CC(C(=O)[O-])Nc3cc(Cl)cc(Cl)c32)cc1.[Na+] (racemic) [Example 9, Sodium Salt]
(Q) CC(C)C(=O)NCCOc1ccc(NC(=O)C=C2CC(C(=O)O)Nc3cc(Cl)cc(Cl)c32)cc1 (racemic) [Example 6]
(R) O=C(C=C1CC(C(=O)O)Nc2cc(Cl)cc(Cl)c21)Nc1ccc(OCCN2CCOCC2)cc1 (racemic) [Example 4]
Data request: Could you please order the items by pKi, going from the lowest number to the highest? Please respond by ranking the labels in the order requested.
Data returned: R, Q, P
(R: 7.20, Q: 7.80, P: 8.10)
